Reference source: patent US20220226508A1

tested_target: human 5-HT2BR (Homo sapiens)
Construct: expressed in transfected cells
assay_info: biochemical
Type: binding
reported_conditions: read-out: binding affinity (Ki) 5-HT2BR
attribute_measured: Ki (nM)
Give bare numbers, in nM.

structure_notation: Fc1ccc(Cn2c(CN3CCCC3)nc3ccccc32)cc1
unit_symbol: nM
Ki: 46

structure_notation: CN1CCN(Cc2nc3ccccc3n2Cc2ccc(Cl)cc2)CC1
unit_symbol: nM
Ki: 20

structure_notation: c1ccc(Cn2c(CN3CCCC3)nc3ccccc32)cc1
unit_symbol: nM
Ki: 83

Turning now to a further record.
Ki measured on `CCCn1c(CN2CCCC2)nc2ccccc21` = 219

----------
tested_target: human 5-HT2BR (Homo sapiens, UniProt P41595)
Construct: expressed in transfected cells
Sequence (P41595 whole entry): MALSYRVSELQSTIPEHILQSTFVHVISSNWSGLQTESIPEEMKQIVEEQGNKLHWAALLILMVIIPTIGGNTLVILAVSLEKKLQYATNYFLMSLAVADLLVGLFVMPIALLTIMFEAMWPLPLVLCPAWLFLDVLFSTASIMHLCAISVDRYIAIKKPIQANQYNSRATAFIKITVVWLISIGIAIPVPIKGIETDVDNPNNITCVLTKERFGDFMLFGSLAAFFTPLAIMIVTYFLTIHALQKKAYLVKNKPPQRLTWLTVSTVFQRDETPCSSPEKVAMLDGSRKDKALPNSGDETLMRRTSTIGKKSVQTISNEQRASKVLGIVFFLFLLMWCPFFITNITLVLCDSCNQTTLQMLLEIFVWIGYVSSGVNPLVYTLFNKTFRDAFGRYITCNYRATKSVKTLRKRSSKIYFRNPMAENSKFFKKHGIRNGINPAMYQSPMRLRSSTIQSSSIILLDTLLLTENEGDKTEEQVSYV
assay_info: biochemical
Format: binding
reported_conditions: clemizole analogs; recombinant human receptor; read-out: binding affinity (Ki) 5-HT2BR
Experimental: Receptor Binding Assays. In vitro binding assay and Ki data were performed by the US National Institute of Mental Health Psychoactive Drug Screening Program (NIMH PDSP). Drugs were screened against recombinant, stably expressed human 5-HT2AR, 5-HT2BR, 5-HT2CR and H1. For specific binding assays please refer to detailed procedures at https://pdspdb.unc.edu/pdspWeb/ (Besnard, J. et al., Nature, 492, 215-220, 2012).
attribute_measured: pKi
Answers are plain numbers, as −log10 of the molar value.

structure_notation: Clc1ccc(Cn2c(CN3CCCC3)cc3ccccc32)cc1
pKi: 6.87
//
structure_notation: CC(C)(C)OC(=O)N1CCN(Cc2nc3ccccc3n2Cc2ccc(Cl)cc2)CC1
pKi: 6.32
//
structure_notation: Clc1ccc(Cn2c(CC3CCCC3)nc3ccccc32)cc1
pKi: 6.30

Give me pKi for each of these molecules, listed below.
1. c1ccc2c(c1)nc(CN1CCCC1)n2CC1CCCC1
2. FC(F)(F)c1ccc(Cn2c(CN3CCCC3)nc3ccccc32)cc1
3. CCN(CC)Cc1nc2ccccc2n1Cc1ccc(Cl)cc1
4. c1ccc2c(c1)nc(CN1CCCC1)n2CC1CCCCC1

Response:
6.11
6.55
6.94
6.21

----------
Provide the recorded Ki for the entries that follow.
tested_target: human 5-HT2AR (Homo sapiens, UniProt P28223)
Construct: expressed in transfected cells
Sequence (P28223 whole entry): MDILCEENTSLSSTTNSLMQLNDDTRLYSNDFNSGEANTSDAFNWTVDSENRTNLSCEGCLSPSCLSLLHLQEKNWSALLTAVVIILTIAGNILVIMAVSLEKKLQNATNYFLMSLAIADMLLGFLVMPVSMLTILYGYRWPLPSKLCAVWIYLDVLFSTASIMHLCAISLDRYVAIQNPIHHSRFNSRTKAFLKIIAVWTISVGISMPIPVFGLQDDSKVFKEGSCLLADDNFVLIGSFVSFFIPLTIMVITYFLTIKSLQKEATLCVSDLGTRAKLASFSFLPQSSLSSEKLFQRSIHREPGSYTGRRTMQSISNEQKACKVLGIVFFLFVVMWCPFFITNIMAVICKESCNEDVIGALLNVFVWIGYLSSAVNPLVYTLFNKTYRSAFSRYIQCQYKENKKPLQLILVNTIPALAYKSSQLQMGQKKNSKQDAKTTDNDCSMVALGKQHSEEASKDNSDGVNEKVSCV
assay_info: biochemical
Assay type: binding
reported_conditions: clemizole analogs; recombinant human receptor; read-out: binding affinity (Ki) 5-HT2AR
Give bare numbers, in nM.

Example entries begin here.
structure_notation: CC(C)(C)OC(=O)N1CCN(Cc2nc3ccccc3n2Cc2ccc(Cl)cc2)CC1
unit_symbol: nM
Ki: 2380

structure_notation: CCN(CC)Cc1nc2ccccc2n1Cc1ccc(Cl)cc1
unit_symbol: nM
Ki: 1260

Now, please, on to the next compound.
Sure, the documented Ki for `Clc1ccc(Cn2c(CN3CCCC3)cc3ccccc32)cc1` is 631
